All values here come from patent US9944597B2.

experimentalEndpoint: melting point

Here's what some known entries look like.
compound | testValue
CCOC(=O)c1[nH]c(C(=O)O)c(-c2ccc(OC)c(OC)c2OC)c1Br | 173 to 175 °C
CCOC(=O)c1[nH]c(C=O)c(-c2ccc(OC)c(OC)c2OC)c1I | 126 to 128 °C
CCOC(=O)c1[nH]c(CNCCN)c(-c2ccc(OC)c(OC)c2OC)c1Br | 135 to 137 °C

Could you share which melting point value was measured for `CCOC(=O)c1[nH]c(Cl)c(-c2ccc(OC)c(OC)c2OC)c1Cl` ?
151 to 153 °C

Same again, this time with `CCOC(=O)c1[nH]c(CNCCNC(=O)OC(C)(C)C)c(-c2ccc(OC)c(OC)c2OC)c1Br`
235 to 237 °C

---

tested on: HeLa WT-β-III cells; experiment: Antiproliferative SRB assay, βIII-tubulin expressing HeLa; assay type: cell-based, human; conditions: Homo sapiens, HeLa; Table 49; βIII tubulin expressing line, 48 hr, SRB assay
experimentalEndpoint: IC50 (nM)

Here's what some known entries look like.
compound | testValue
CCOC(=O)c1[nH]c(Br)c(-c2ccc(OC)c(OC)c2OC)c1Br | 15.7
CCOC(=O)c1[nH]c(C#N)c(-c2ccc(OC)c(OC)c2OC)c1Br | 26.1
CCOC(=O)c1[nH]c(CO)c(-c2ccc(OC)c(OC)c2OC)c1Br | 27.4
CCOC(=O)c1[nH]c(C=O)c(-c2ccc(OC)c(OC)c2OC)c1I | 100
CCCNC=C1NC(C(=O)OCC)C(Cl)=C1c1ccc(OC)c(OC)c1OC (stereo not shown) | 11.2

(I) CC(=O)O[C@H]1C(=O)[C@@]2(C)[C@H]([C@H](OC(=O)c3ccccc3)[C@]3(O)C[C@H](OC(=O)[C@H](O)[C@@H](NC(=O)c4ccccc4)c4ccccc4)C(C)=C1C3(C)C)[C@]1(OC(C)=O)CO[C@@H]1C[C@@H]2O [paclitaxel, reference compound]
(II) CCOC(=O)c1[nH]c(CN)c(-c2ccc(OC)c(OC)c2OC)c1Cl
Kindly identify the item with the lower IC50 figure among these two: I and II Your answer should be the label of the entry you select.
II
(II: 12.3 nM, I: 21.1 nM)

---

tested on: HeLa (human cervical cancer cells); assay: Antiproliferative SRB assay, HeLa; format: cell-based; settings: Homo sapiens, HeLa, Table 48, 48 hr exposure, read-out: HeLa Anti-Proliferative Activity, IC50
pIC50: −log10 of the molar value.
experimentalEndpoint: pIC50

Here's what some known entries look like.
compound | experimentalEndpoint | testValue
C=Cc1[nH]c(C(=O)OCC)c(Br)c1-c1ccc(OC)c(OC)c1OC [Example 7] | pIC50 | 7.62
CCOC(=O)c1[nH]c(CN)c(-c2ccc(OC)c(OC)c2OC)c1Cl [Example 14] | pIC50 | 7.82

(I) CC(=O)O[C@H]1C(=O)[C@@]2(C)[C@H]([C@H](OC(=O)c3ccccc3)[C@]3(O)C[C@H](OC(=O)[C@H](O)[C@@H](NC(=O)c4ccccc4)c4ccccc4)C(C)=C1C3(C)C)[C@]1(OC(C)=O)CO[C@@H]1C[C@@H]2O [paclitaxel, reference compound]
(II) CCOC(=O)c1[nH]c(Cl)c(-c2ccc(OC)c(OC)c2OC)c1Cl [Example 23]
(III) CCOC(=O)c1[nH]c(/C=C/C(=O)OC)c(-c2ccc(OC)c(OC)c2OC)c1Br [Example 8b]
(IV) CCCNC=C1NC(C(=O)OCC)C(Br)=C1c1ccc(OC)c(OC)c1OC (stereo not shown) [Example 17]
(V) CCOC(=O)c1[nH]c(C=O)c(-c2ccc(OC)c(OC)c2OC)c1Cl [Example 3]
// ranking: key=pIC50, reverse=True Labels, requested order.
I, III, V, II, IV
(I: 8.82, III: 7.96, V: 7.36, II: 6.88, IV: 5.61)

---

tested on: A-10 cells; experiment: Cellular microtubule loss by indirect immunofluorescence; assay type: cell-based, rat; conditions: Rattus norvegicus, A10; Table 53; own compounds; read-out: Microtubule Depolymerization EC50
experimentalEndpoint: EC50 (nM)
The answer is to be given in nM; state only the numeric part.

Could you share which EC50 value was measured for CCOC(=O)c1[nH]c(Br)c(-c2ccc(OC)c(OC)c2OC)c1Br [NT-7-16] ?
345

---

tested on: HeLa (human cervical cancer cells); experiment: Antiproliferative SRB assay, HeLa; assay type: cell-based; conditions: Homo sapiens, HeLa, Table 48, 48 hr exposure, read-out: HeLa Anti-Proliferative Activity, IC50
pIC50: −log10 of the molar value.
experimentalEndpoint: pIC50

compound | experimentalEndpoint | testValue
CCOC(=O)c1[nH]c(C(=O)O)c(-c2ccc(OC)c(OC)c2OC)c1Br [Example 9] | pIC50 | 5.63

(1) CCOC(=O)c1[nH]c(C=NO)c(-c2ccc(OC)c(OC)c2OC)c1Cl (mixture of isomers) [Example 21]
(2) CCOC(=O)c1[nH]c(CN)c(-c2ccc(OC)c(OC)c2OC)c1Br [Example 13]
Kindly identify the item with the lower pIC50 figure among these two: 1 and 2 Your answer should be the label of the entry you select.
1
(1: 6.91, 2: 7.71)

---

biological target: purified porcine brain tubulin (Sus scrofa, UniProt P02554); construct: of Purified Porcine Brain Tubulin; from tissue; host or cells: porcine brain; test: Inhibition of polymerization of purified tubulin (absorbance at 340 nm); type: biochemical; conditions: compound at 2 μM
Sequence (P02554 whole entry): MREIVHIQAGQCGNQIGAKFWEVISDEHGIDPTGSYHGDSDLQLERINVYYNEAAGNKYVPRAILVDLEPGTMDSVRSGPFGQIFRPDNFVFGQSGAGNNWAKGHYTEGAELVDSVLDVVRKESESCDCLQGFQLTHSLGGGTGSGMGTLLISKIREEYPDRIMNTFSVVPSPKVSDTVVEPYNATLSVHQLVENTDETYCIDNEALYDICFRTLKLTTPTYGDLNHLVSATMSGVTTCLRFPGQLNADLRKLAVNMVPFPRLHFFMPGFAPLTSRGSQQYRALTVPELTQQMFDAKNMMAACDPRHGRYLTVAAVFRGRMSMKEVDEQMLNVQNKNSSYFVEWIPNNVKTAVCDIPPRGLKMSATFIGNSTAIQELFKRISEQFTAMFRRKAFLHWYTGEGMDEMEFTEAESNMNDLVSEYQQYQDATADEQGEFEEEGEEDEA
Sequence (P02550 whole entry partner): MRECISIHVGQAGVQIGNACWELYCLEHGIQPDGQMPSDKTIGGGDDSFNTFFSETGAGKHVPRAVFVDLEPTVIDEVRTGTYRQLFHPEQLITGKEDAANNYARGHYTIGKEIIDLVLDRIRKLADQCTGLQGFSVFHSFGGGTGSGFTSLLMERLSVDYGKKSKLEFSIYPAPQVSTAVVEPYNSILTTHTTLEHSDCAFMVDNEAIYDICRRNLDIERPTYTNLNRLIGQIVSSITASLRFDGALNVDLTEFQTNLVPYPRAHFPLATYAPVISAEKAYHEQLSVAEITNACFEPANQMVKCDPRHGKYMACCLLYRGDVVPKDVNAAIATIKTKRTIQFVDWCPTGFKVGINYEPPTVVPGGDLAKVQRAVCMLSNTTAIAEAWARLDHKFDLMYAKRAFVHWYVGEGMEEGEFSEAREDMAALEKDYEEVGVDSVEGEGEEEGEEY
experimentalEndpoint: inhibition at 2 µM (%)

Here's what some known entries look like.
compound | inhibition at 2 µM / %
CCOC(=O)c1[nH]c(C#N)c(-c2ccc(OC)c(OC)c2OC)c1Br | 78
CCOC(=O)c1[nH]c(C=O)c(-c2ccc(OC)c(OC)c2OC)c1Br | 68

(I) CCOC(=O)c1[nH]c(C(F)F)c(-c2ccc(OC)c(OC)c2OC)c1Br
(II) CCOC(=O)c1[nH]c(C=NOC)c(-c2ccc(OC)c(OC)c2OC)c1Br (mixture of isomers)
Response body: label of entry with the larger inhibition at 2 µM; valid values I , II . Your answer should be the label of the entry you select.
II
(II: 99%, I: 55%)

---

Readings of melting point for the listed compounds

compound | melting point
CCCNC=C1NC(C(=O)OCC)C(Br)=C1c1ccc(OC)c(OC)c1OC (centres unmarked) [Example 17] | 143 to 145 °C
CCOC(=O)c1[nH]c(C#N)c(-c2ccc(OC)c(OC)c2OC)c1Br [Example 11] | 173 to 176 °C
CCOC(=O)c1[nH]c(CN)c(-c2ccc(OC)c(OC)c2OC)c1Cl [Example 14] | 143 to 145 °C
CCOC(=O)c1[nH]c(C=O)c(-c2ccc(OC)c(OC)c2OC)c1Br [Example 2] | 158 to 160 °C
CCOC(=O)c1[nH]c(C=O)c(-c2ccc(OC)c(OC)c2OC)c1Cl [Example 3] | 193 to 195 °C
CCOC(=O)c1cc(-c2ccc(OC)c(OC)c2OC)c(C=O)[nH]1 [Example 1] | 138 to 140 °C

Could you share which melting point value was measured for CCOC(=O)c1[nH]c(C(F)F)c(-c2ccc(OC)c(OC)c2OC)c1Br [Example 6] ?
149 to 151 °C

Same again, this time with CCOC(=O)c1[nH]c(CN)c(-c2ccc(OC)c(OC)c2OC)c1Br [Example 13]
176 to 178 °C

Same again, this time with CCCNC=C1NC(C(=O)OCC)C(Cl)=C1c1ccc(OC)c(OC)c1OC (centres unmarked) [Example 18]
166 to 168 °C

Same again, this time with CCOC(=O)c1[nH]c(C=NOC)c(-c2ccc(OC)c(OC)c2OC)c1Br (mixture of isomers) [Example 12]
125 to 128 °C

Same again, this time with CCOC(=O)c1[nH]c(C=NO)c(-c2ccc(OC)c(OC)c2OC)c1Cl (mixture of isomers) [Example 21]
135 to 140 °C

---

system: HeLa (human cervical cancer cells); assay: Antiproliferative SRB assay, HeLa; assay type: cell-based; conditions: Homo sapiens, HeLa, Table 48, 48 hr exposure, read-out: HeLa Anti-Proliferative Activity, IC50
experimentalEndpoint: IC50 (nM)

(1) CCOC(=O)c1[nH]c(CO)c(-c2ccc(OC)c(OC)c2OC)c1Br
(2) CCOC(=O)c1[nH]c(C(F)F)c(-c2ccc(OC)c(OC)c2OC)c1Br
(3) CCCNC=C1NC(C(=O)OCC)C(Cl)=C1c1ccc(OC)c(OC)c1OC (centres unmarked)
Order the items by recorded IC50; the first position goes to the largest value. Labels, requested order.
2, 1, 3
